study.target: hα2A receptor (Homo sapiens, UniProt P08913)
Construct: expressed in transfected cells
Sequence (P08913 1-465): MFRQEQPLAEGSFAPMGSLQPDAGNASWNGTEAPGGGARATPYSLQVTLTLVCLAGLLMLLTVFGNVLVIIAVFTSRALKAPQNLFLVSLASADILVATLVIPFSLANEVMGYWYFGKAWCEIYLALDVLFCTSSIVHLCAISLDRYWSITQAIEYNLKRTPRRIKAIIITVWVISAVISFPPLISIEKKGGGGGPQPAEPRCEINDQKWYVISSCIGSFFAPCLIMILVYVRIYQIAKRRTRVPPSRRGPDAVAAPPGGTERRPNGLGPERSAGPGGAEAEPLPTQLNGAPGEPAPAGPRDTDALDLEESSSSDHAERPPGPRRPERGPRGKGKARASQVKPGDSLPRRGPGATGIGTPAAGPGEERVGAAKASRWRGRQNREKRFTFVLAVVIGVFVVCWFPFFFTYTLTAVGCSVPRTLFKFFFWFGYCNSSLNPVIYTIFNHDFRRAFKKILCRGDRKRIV
protocol.description: Radioligand binding experiment for hα2A receptor ([3H]-raulwolscine)
applied.conditions: membranes of CHO cells expressing human α2A receptor; [3H]raulwolscine 1 nM; read-out: hα2A pIC50 (converted)
// reported IC50 per item
Express it in nM; write the number only.

## Task Sample COc1cc2c(cc1OC)C1=NOC(CN3CCN(Cc4cccc(F)c4)CC3)C1CO2 (centres unmarked) — what was its IC50?
## Result 603

## Task Which IC50 is listed for C(=Cc1ccccc1)CN1CCN(CC2ON=C3c4ccccc4CCC32)CC1 (centres unmarked) ?
## Result 182

## Task # IC50 lookup, item COc1cc2c(cc1OC)C1=NOC(CN3CCN(CCc4ccc5c(c4)OCO5)CC3)C1CO2 (centres unmarked)
## Result 661

## Task IC50 for C(=Cc1ccccc1)CN1CCN(CC2ON=C3c4cc5c(cc4OCC32)OCO5)CC1 (centres unmarked) ?
## Result 3.24

## Task // returns reported IC50 for input COc1ccccc1C=CCN1CCN(CC2ON=C3c4cc(OC)c(OC)cc4OCC32)CC1 (centres unmarked)
## Result 15.8

## Task Form field: reported IC50 of COc1cc2c(cc1OC)C1=NOC(CN3CCN(CC4=Cc5ccccc5CC4)CC3)C1CO2 (centres unmarked)
## Result 1.62

## Task Consider the molecule shown here: COc1cc2c(cc1OC)C1=NOC(CN3CCN(CC(C)=Cc4ccc(F)cc4)CC3)C1CO2 (centres unmarked) What is its recorded IC50?
## Result 14.5

## Task Give its IC50 value. Item: COc1cc2c(cc1OC)C1=NOC(CN3CCN(CC(C)=Cc4cccc5ccccc45)CC3)C1CO2 (centres unmarked)
## Result 13.5

====

study.target: hα2A receptor (Homo sapiens, UniProt P08913)
Construct: expressed in transfected cells
protocol.description: Radioligand binding experiment for hα2A receptor ([3H]-raulwolscine)
applied.conditions: membranes of CHO cells expressing human α2A receptor; [3H]raulwolscine 1 nM; read-out: hα2A pIC50 (converted)
readout.label: IC50 (nM)
Hi! Could you send only the number? It should be in nM, unit omitted.

Previously resolved entries follow.
- CC(=O)Oc1ccc2c(c1)OCC1C2=NOC1CN1CCN(Cc2ccc3ccccc3c2)CC1 (centres unmarked) [Compound 273]: 7.76
- COc1cc2c(cc1OC)C1=NOC(CN3CCN(CC=Cc4ccc5ccccc5c4)CC3)C1CO2 (centres unmarked) [Compound 181]: 282
- CCC(=Cc1ccccc1)CN1CCN(CC2ON=C3c4cc(OC)c(OC)cc4OCC32)CC1 (centres unmarked) [Compound 154]: 53.7
- COc1ccc2c(c1)C1=NOC(CN3CCN(CC(C)=Cc4ccccc4)CC3)C1CO2 (centres unmarked) [Compound 348]: 1.2
- COc1ccc2c(c1)CCC1C2=NOC1CN1CCN(CC=Cc2ccccc2)CC1 (centres unmarked) [Comp 220]: 7.59

## Task # get_value(readout='IC50', item= COc1ccccc1C=C(C)CN1CCN(CC2ON=C3c4cc(OC)c(OC)cc4OCC32)CC1 (centres unmarked) [Compound 201] )
## Result 4.37

## Task Given the entry COc1cc2c(cc1OC)C1=NOC(CN3CCN(C(C)/C=C/c4ccccc4)CC3)C1CO2 (single isomer, unassigned) [Compound 316] , report its measured IC50.
## Result 10.5

## Task So what's the measured IC50 for this one? COc1cc2c(cc1OC)C1=NOC(CN3CCN(Cc4cccn4C)CC3)C1CO2 (centres unmarked) [Compound 291]
## Result 851
